Some compounds, each annotated with its measured MIC.
tested on: Staphylococcus aureus USA800; experiment: MIC assay, S. aureus USA800

These solved cases illustrate the format of a correct answer.
CC(=O)OC1C(C)C(OC2CC3OCOC3C(C)O2)/C=C/OC2(C)OC3=C(C)C(=O)c4c(O)c(cc5c4C3=C2OCO5)NC(=O)/C(C)=C\C=C\C(C(C)OC(=O)C(C)(C)CC(=O)O)C(O)C(C)C(O)C1C (stereo not shown)    1 µg/mL
CO[C@H]1/C=C/O[C@@]2(C)Oc3c(C)c(O)c4c(O)c(c(/C=N/N5CCN(C)CC5)c(O)c4c3C2=O)NC(=O)/C(C)=C\C=C\[C@H](C)[C@H](O)[C@@H](C)[C@@H](O)[C@@H](C)[C@H](OC(C)=O)[C@@H]1C [Rifampicin, rifampicin, reference compound]    0.016 µg/mL

Return reported MIC for target or system Staphylococcus aureus USA800, item CC(=O)O[C@@H]1[C@@H](C)[C@@H](O)[C@@H](C)[C@@H](O)[C@@H]([C@@H](C)OC(=O)C(C)(C)CC(=O)O)/C=C/C=C(\C)C(=O)NC2=CC(=O)c3c(c(O)c(C)c4c3C(=O)[C@](C)(O/C=C/[C@H](O[C@@H]3C[C@@H]5OCO[C@@H]5[C@H](C)O3)[C@H]1C)O4)C2=O [Kang A, kanglemycin A, reference compound] .
0.5 µg/mL

Specify the recorded MIC for CC(=O)OC1C(C)C(OC2CC3OCOC3C(C)O2)/C=C/OC2(C)CC(O)c3c(c(C)c(O)c4c3C(=O)C=C(NC(=O)/C(C)=C\C=C\C(C(C)OC(=O)C(C)(C)CC(=O)O)C(O)C(C)C(O)C1C)C4=O)O2 (stereo not shown) , system: Staphylococcus aureus USA800.
0.063 µg/mL

----------
Catalogue of MIC readings, one per entry.
system: Pseudomonas aeruginosa PAO1; assay: MIC assay, Pseudomonas aeruginosa PAO1
Numeric only. Scale: µg/mL

Answered cases to consult:
CO[C@H]1/C=C/O[C@@]2(C)Oc3c(C)c(O)c4c(O)c(c(/C=N/N5CCN(C)CC5)c(O)c4c3C2=O)NC(=O)/C(C)=C\C=C\[C@H](C)[C@H](O)[C@@H](C)[C@@H](O)[C@@H](C)[C@H](OC(C)=O)[C@@H]1C [Rifampicin, rifampicin, reference compound]    32
CC(=O)OC1C(C)C(OC2CC3OCOC3C(C)O2)/C=C/OC2(C)CC(O)c3c(c(C)c(O)c4c3C(=O)C=C(NC(=O)/C(C)=C\C=C\C(C(C)OC(=O)C(C)(C)CC(=O)O)C(O)C(C)C(O)C1C)C4=O)O2 (stereo not shown)    64
CC(=O)OC1C(C)C(OC2CC3OCOC3C(C)O2)/C=C/OC2(C)OC3=C(C)C(=O)c4c(O)c(cc5c4C3=C2OCO5)NC(=O)/C(C)=C\C=C\C(C(C)OC(=O)C(C)(C)CC(=O)O)C(O)C(C)C(O)C1C (stereo not shown)    64

Note: attention shifts to another entry.
Quote MIC reported for CC(=O)O[C@@H]1[C@@H](C)[C@@H](O)[C@@H](C)[C@@H](O)[C@@H]([C@@H](C)OC(=O)C(C)(C)CC(=O)O)/C=C/C=C(\C)C(=O)NC2=CC(=O)c3c(c(O)c(C)c4c3C(=O)[C@](C)(O/C=C/[C@H](O[C@@H]3C[C@@H]5OCO[C@@H]5[C@H](C)O3)[C@H]1C)O4)C2=O [Kang A, kanglemycin A, reference compound] please.
64

These data points were gathered from patent US11325920B2.
